System: MOLM-13 cells
Experiment: Cell viability assay (CellTiter-Glo) in MOLM-13 cells, alone or with gilteritinib
Type: cell-based
Details: Homo sapiens, MOLM-13, 72 h, MOLM-13 cells, compound alone (without gilteritinib), three days, CellTiter-Glo; read-out: MOLM-13 IC50
pIC50: −log10 of the molar value.
Listed compounds paired with reported pIC50
Readout: pIC50

>>> endpoint_value("C[C@@H]1CN(c2ccc3ncc(-c4cnn([C@H]5C[C@H](CCCNc6ccc7c(c6)C(=O)N(C6CCC(=O)NC6=O)C7=O)C5)c4)nc3c2)C[C@H](C)N1C (stereo partly drawn) [GS-408]")
"6.00 to 7.00"
>>> endpoint_value("CN1CCC(c2cccc3ncc(-c4cnn(C5CCN(C(=O)CCCCCNc6ccc7c(c6)C(=O)N(C6CCC(=O)NC6=O)C7=O)CC5)c4)nc23)CC1 (stereo not drawn) [GS-045]")
"< 6.00"
>>> endpoint_value("O=C1CCC(N2C(=O)c3ccc(CCN4CC(n5cc(-c6cnc7ccccc7n6)c(C6CC6)n5)C4)cc3C2=O)C(=O)N1 (stereo not drawn) [GS-469]")
"< 6.00"
>>> endpoint_value("O=C1CCC(N2C(=O)c3ccc(NCCCCCC(=O)N4CCC(n5cc(N6CCOCC6)cn5)CC4)cc3C2=O)C(=O)N1 (stereo not drawn) [GS-047]")
"6.00 to 7.00"
>>> endpoint_value("O=C1CCC(N2Cc3c(csc3CNC(=O)Nc3cccc(N4CCC(n5cc(-c6cnc7ccccc7n6)cn5)CC4)c3)C2=O)C(=O)N1 (stereo not drawn) [GS-093]")
"> 8.00"
>>> endpoint_value("Cc1nn([C@H]2C[C@H](CCCNc3ccc4c(c3)C(=O)N(C3CCC(=O)NC3=O)C4=O)C2)cc1-c1cnc2ccccc2n1 (stereo partly drawn) [GS-171]")
"7.00 to 8.00"

* * *

Tested on: MOLM-13 cells
Assay: Cell viability assay (CellTiter-Glo) in MOLM-13 cells, alone or with gilteritinib
Assay type: cell-based
Conditions: Homo sapiens, MOLM-13, 72 h, MOLM-13 cells, compound alone (without gilteritinib), three days, CellTiter-Glo; read-out: MOLM-13 IC50
Readout: IC50

>>> endpoint_value("O=C1CCC(N2C(=O)c3ccc(NC[C@H]4C[C@H](n5cc(-c6nccc7cn[nH]c67)c(C6CC6)n5)C4)cc3C2=O)C(=O)N1 (stereo partly drawn) [GS-310]")
"100 to 1000 nM"
>>> endpoint_value("O=C1CCC(N2C(=O)c3ccc(NCCC[C@H]4C[C@H](n5cc(-c6cnc7ccc(NC8CCNCC8)cc7n6)cn5)C4)cc3C2=O)C(=O)N1 (stereo partly drawn) [GS-196]")
"10 to 100 nM"
>>> endpoint_value("CN(C)c1cccnc1-c1cn([C@H]2C[C@H](CNc3ccc4c(c3)C(=O)N(C3CCC(=O)NC3=O)C4=O)C2)nc1C1CC1 (stereo partly drawn) [GS-621]")
"10 to 100 nM"
>>> endpoint_value("O=C1CCC(N2C(=O)c3ccc(NCCC[C@H]4C[C@H](n5cc(-c6cnc7c(N8CCNCC8)cccc7n6)cn5)C4)cc3C2=O)C(=O)N1 (stereo partly drawn) [GS-405]")
"100 to 1000 nM"
>>> endpoint_value("O=C1CCC(N2C(=O)c3ccc(NCCCCCCn4cc(-c5cnc6cccc(Br)c6n5)cn4)cc3C2=O)C(=O)N1 (stereo not drawn) [GS-315]")
"100 to 1000 nM"
>>> endpoint_value("O=C1CCC(N2C(=O)c3ccc(NCC4CC(C(=O)N5CCC(n6cc(-c7cnc8ccccc8n7)cn6)CC5)C4)cc3C2=O)C(=O)N1 (stereo not drawn) [GS-192]")
"> 1000 nM"
